subject_of_test: T1, human D6 (human, UniProt O00590 1-384)
T1 construct: Full-length human D6 expressed in CHO, Hos.CD4, HEK 293, K293 or L1.2 cells; Endogenous on THP-1 cells; also called human D6 receptor; wild type human D6
T1 sequence: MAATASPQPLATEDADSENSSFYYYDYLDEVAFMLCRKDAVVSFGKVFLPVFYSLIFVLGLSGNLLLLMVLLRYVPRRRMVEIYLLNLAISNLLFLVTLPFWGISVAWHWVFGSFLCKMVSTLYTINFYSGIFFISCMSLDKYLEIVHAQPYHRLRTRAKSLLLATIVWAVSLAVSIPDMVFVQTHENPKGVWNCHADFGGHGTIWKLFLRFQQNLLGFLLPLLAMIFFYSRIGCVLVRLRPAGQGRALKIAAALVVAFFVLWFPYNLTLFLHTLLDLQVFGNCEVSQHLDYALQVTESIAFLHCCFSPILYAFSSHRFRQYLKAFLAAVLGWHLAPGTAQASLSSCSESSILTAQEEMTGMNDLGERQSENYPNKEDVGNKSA
experiment: displacement of 125I-murine MIP-1α by unlabeled chemokine on cells expressing human D6; LIGAND analysis
pKd: −log10 of the molar value.
Hi, to clarify the labels: Y covers pKd from 8 upward, N covers anything below 8.

API: above_or_equal(metric=pKd, cutoff=8) for item human RANTES (ligand, UniProt P13501 24-91, looked up, also called hRANTES; HRANTES) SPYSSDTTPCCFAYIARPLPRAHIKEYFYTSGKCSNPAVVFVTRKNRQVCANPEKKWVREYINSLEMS
Y

API: above_or_equal(metric=pKd, cutoff=8) for item human MCP-2 (ligand, UniProt P80075 24-99, looked up, also called hMCP-2) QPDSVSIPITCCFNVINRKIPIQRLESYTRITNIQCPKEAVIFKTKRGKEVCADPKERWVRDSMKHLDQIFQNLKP
N
